Data origin: a melting point compilation (Tetko et al.)

Please provide measured melting point for the entries that follow.
Give bare numbers, in °C.

[[record]]
compound = "COc1cccc(OCC(=O)O)c1"
readoutkind = "melting point"
uom = "°C"
quantitativeresult = 118

[[record]]
compound = "O=C1CCCCCCCCC1=O"
readoutkind = "melting point"
uom = "°C"
quantitativeresult = 40.5

[[record]]
compound = "O=C1NC(=O)C(=NNc2cccc([N+](=O)[O-])c2)C(=O)N1"
readoutkind = "melting point"
uom = "°C"
quantitativeresult = 270

[[record]]
compound = "Oc1ccc(C#Cc2ccc(F)cc2)cc1"
readoutkind = "melting point"
uom = "°C"
quantitativeresult = 149

[[record]]
compound = "CCCCCCN1CC(C(=O)OC)CC1=O (stereo unspecified)"
readoutkind = "melting point"
uom = "°C"
quantitativeresult = 4

[[record]]
compound = "COc1cc([C@@H](O)[C@H](CO)Oc2c(OC)cccc2OC)cc(OC)c1O"
readoutkind = "melting point"
uom = "°C"
quantitativeresult = 217


For every item in the list below, what is its measured melting point?
1. NC(=O)NC1NC(=O)NC1=O (stereo unspecified)
2. O=CC(=O)O
3. COc1ccc[nH]c1=O

Marked response:
1: 238; 2: 98; 3: 115
